- test_target: SOS1 (Homo sapiens, UniProt Q07889)
- Sequence (Q07889 whole entry): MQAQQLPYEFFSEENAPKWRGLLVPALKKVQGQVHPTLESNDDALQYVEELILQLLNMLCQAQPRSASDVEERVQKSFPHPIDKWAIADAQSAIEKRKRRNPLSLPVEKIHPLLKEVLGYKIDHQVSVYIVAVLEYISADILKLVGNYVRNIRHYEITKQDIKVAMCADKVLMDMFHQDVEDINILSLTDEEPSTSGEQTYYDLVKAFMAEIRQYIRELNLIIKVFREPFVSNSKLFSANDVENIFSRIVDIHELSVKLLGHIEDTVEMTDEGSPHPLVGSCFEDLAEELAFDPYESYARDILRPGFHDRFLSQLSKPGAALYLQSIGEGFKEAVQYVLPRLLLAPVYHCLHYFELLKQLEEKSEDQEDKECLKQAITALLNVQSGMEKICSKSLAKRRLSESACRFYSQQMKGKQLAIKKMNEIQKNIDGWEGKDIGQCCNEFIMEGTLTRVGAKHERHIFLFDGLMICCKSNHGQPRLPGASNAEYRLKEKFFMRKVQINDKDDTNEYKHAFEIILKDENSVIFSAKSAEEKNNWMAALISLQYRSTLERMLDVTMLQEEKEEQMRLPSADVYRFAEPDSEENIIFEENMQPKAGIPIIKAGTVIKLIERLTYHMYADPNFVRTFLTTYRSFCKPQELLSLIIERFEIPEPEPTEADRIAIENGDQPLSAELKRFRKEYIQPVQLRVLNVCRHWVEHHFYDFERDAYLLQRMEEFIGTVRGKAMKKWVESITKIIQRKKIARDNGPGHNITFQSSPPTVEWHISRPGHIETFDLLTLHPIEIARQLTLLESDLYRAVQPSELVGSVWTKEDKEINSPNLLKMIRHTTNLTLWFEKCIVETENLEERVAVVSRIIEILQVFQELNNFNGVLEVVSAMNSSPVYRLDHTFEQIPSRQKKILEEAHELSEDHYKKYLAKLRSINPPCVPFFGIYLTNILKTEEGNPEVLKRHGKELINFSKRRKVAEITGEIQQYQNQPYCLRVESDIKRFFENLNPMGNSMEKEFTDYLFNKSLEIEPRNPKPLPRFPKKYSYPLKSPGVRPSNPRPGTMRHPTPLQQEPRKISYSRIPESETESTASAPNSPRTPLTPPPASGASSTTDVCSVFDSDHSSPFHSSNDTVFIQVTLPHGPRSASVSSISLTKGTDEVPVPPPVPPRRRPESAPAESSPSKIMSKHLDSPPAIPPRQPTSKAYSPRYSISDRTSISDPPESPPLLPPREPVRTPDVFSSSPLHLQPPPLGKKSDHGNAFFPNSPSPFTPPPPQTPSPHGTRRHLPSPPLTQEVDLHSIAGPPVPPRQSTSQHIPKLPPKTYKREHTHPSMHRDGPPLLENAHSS
- test_description: biochemical
pIC50: −log10 of the molar value. Counter-ions that a name gives are not always drawn.
Classify by measured pIC50: 1.0 if it is equal to or exceeds 8, 0.0 if it is smaller.

{"compound": "CNc1nnc(N[C@H](C)c2cccc(C#N)c2C)c2cn(C3(C)CC3)c(=O)cc12", "test_target": "SOS1 (Homo sapiens, UniProt Q07889)", "group_label": 1.0}
{"compound": "C[C@@H](Nc1nnc(NC2CCOC2)c2cc(=O)n(C3(C)CC3)cc12)c1cccc(C(F)F)c1F (stereo partly shown) [Example 119, formate]", "test_target": "SOS1 (Homo sapiens, UniProt Q07889)", "group_label": 1.0}
{"compound": "Cc1c(C#N)cccc1[C@@H](C)Nc1nnc(N2CCS(=O)(=O)CC2)c2cc(=O)n(C3(C)CC3)cc12", "test_target": "SOS1 (Homo sapiens, UniProt Q07889)", "group_label": 0.0}
{"compound": "C[C@@H](Nc1nnc(N2CCN(C3CCCC3)CC2)c2cc(=O)n(C3(C)CC3)cc12)c1cccc(C(F)(F)F)c1F", "test_target": "SOS1 (Homo sapiens, UniProt Q07889)", "group_label": 1.0}
{"compound": "C[C@@H](Nc1nnc(NC2CC2)c2cc(=O)n(C3(C)CC3)cc12)c1cccc(C(F)F)c1F", "test_target": "SOS1 (Homo sapiens, UniProt Q07889)", "group_label": 1.0}

----------
- test_description: Rat liver microsomal metabolic stability
- Assay type: in vitro ADME
- experimental_conditions: rat liver microsomes, NADPH, 37°C
One threshold, 3 h, splits the recorded half-life at 1 µM values: lower ones are t, equal or higher ones are f.

{"compound_structure": "C[C@@H](Nc1nnc(N2CCN(C)CC2)c2cc(=O)n(C3(C)CC3)cc12)c1cccc(C(F)F)c1F.O=CO", "group_label": "t"}
{"compound_structure": "CC(C)C1CCN(c2nnc(N[C@H](C)c3cccc(C(F)F)c3F)c3cn(C4(C)CC4)c(=O)cc23)CC1", "group_label": "f"}
{"compound_structure": "C[C@@H](Nc1nnc(N2CCN(C)CC2)c2cc(=O)n(C3CC(F)(F)C3)cc12)c1cccc(C(F)F)c1F", "group_label": "t"}
{"compound_structure": "CCN1CCN(c2nnc(N[C@H](C)c3cccc(C(F)F)c3F)c3cn(N4CCOCC4)c(=O)cc23)CC1", "group_label": "f"}
{"compound_structure": "C[C@@H](Nc1nnc(N2CCN(C3CCC3)CC2)c2cc(=O)n(C3(C)CC3)cc12)c1cccc(C(F)F)c1F", "group_label": "t"}
{"compound_structure": "CCN1CCN(c2nnc(N[C@H](C)c3cccc(C(F)F)c3F)c3cn(C4(C)CC4)c(=O)cc23)CC1", "group_label": "f"}
{"compound_structure": "CCN1CCN(c2nnc(N[C@H](C)c3cccc(C(F)(F)F)c3C)c3cn(C4(C)CC4)c(=O)cc23)CC1", "group_label": "t"}

----------
IC50 overview
- test_target: CYP2C19 (Homo sapiens)
- Construct: human liver microsomes were used as the CYP450 enzyme source; from tissue; host or cells: human liver microsomes
- Sequence (P33261 whole entry): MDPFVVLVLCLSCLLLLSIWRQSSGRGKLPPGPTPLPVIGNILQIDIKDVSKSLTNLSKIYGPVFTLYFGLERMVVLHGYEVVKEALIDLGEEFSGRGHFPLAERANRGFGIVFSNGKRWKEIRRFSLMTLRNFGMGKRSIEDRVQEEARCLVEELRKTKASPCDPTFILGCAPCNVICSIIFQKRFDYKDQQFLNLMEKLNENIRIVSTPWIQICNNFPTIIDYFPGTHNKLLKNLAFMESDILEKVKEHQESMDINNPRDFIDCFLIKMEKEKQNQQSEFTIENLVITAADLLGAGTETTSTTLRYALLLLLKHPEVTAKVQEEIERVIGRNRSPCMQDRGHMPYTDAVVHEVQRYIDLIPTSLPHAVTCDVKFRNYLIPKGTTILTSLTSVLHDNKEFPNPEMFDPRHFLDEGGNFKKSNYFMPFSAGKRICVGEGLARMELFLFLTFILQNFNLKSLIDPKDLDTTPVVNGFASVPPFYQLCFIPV
- test_description: Inhibition of hepatic drug-metabolizing enzymes in human liver microsomes
- Format: in vitro ADME
- experimental_conditions: human liver microsomes; read-out: Inhibitory activity on drug-metabolizing enzymes (IC50, µM) CYP2C19
recorded_endpoint: IC50

{"compound": "C[C@@H](Nc1nnc(N2CCN(C)CC2)c2cc(=O)n(C3CCC3)cc12)c1cccc(C(F)F)c1F [Example 88]", "val": "> 10 µM"}
{"compound": "CC(C)N1CCN(c2nnc(N[C@H](C)c3cccc(C(F)F)c3F)c3cn(C4(C)CC4)c(=O)cc23)CC1 [Example 217]", "val": "> 10 µM"}
{"compound": "CCN1CCN(c2nnc(N[C@H](C)c3cccc(C(F)F)c3F)c3cn(C4(C)CC4)c(=O)cc23)CC1 [Example 216]", "val": "> 10 µM"}
{"compound": "CC(C)N1CCN(c2nnc(N[C@H](C)c3cccc(C(F)F)c3F)c3cn(N4CCOCC4)c(=O)cc23)CC1 [Example 111]", "val": "> 10 µM"}
{"compound": "C[C@@H](Nc1nnc(N2CCN(C)CC2)c2cc(=O)n(N3CCOCC3)cc12)c1cccc(C(F)F)c1F [Example 110]", "val": "> 10 µM"}
{"compound": "C[C@@H](Nc1nnc(N2CCN(C3CCCC3)CC2)c2cc(=O)n(N3CCOCC3)cc12)c1cccc(C(F)F)c1F [Example 120]", "val": "> 10 µM"}
{"compound": "CCN1CCN(c2nnc(N[C@H](C)c3cccc(C(F)F)c3F)c3cn(C4CCC4)c(=O)cc23)CC1 [Example 112]", "val": "> 10 µM"}

----------
- test_description: Rat liver microsomal metabolic stability
- Format: in vitro ADME
- experimental_conditions: rat liver microsomes, NADPH, 37°C

{"compound_structure": "C[C@@H](Nc1nnc(N2CCN(C)CC2)c2cc(=O)n(N3CCOCC3)cc12)c1cccc(C(F)F)c1F", "operator": ">", "half-life at 1 µM (h)": 5}
{"compound_structure": "CCN1CCN(c2nnc(N[C@H](C)c3cccc(C(F)F)c3F)c3cn(C4CC(F)(F)C4)c(=O)cc23)CC1", "operator": "=", "half-life at 1 µM (h)": 3.12}
{"compound_structure": "C[C@@H](Nc1nnc(N2CCN(C3CCCC3)CC2)c2cc(=O)n(N3CCOCC3)cc12)c1cccc(C(F)F)c1F", "operator": ">", "half-life at 1 µM (h)": 5}
{"compound_structure": "C[C@@H](Nc1nnc(NC2(C)CC2)c2cc(=O)n(C3(C)CC3)cc12)c1cccc(C(F)F)c1F", "operator": "=", "half-life at 1 µM (h)": 0.855}

----------
CLint scaled at 1 µM values for the compounds below.
- test_description: Rat liver microsomal metabolic stability
- Type: in vitro ADME
- experimental_conditions: rat liver microsomes, calculated from T1/2, fu defaulted to 1; read-out: CL(liver)

{"compound": "CC(C)N1CCN(c2nnc(N[C@H](C)c3cccc(C(F)F)c3F)c3cn(C4(C)CC4)c(=O)cc23)CC1", "CLint scaled at 1 µM": "8.18 mL/min/kg"}
{"compound": "CC(C)Nc1nnc(N[C@H](C)c2cccc(C(F)F)c2F)c2cn(C3(C)CC3)c(=O)cc12.O=CO [Example 12, formate]", "CLint scaled at 1 µM": "12.8 mL/min/kg"}
{"compound": "C[C@@H](Nc1nnc(N2CCN(C)CC2)c2cc(=O)n(C3CC(F)(F)C3)cc12)c1cccc(C(F)F)c1F", "CLint scaled at 1 µM": "13.5 mL/min/kg"}
{"compound": "CNc1nnc(N[C@H](C)c2cccc(C(F)(F)F)c2C)c2cn(C3CC3)c(=O)cc12", "CLint scaled at 1 µM": "19.2 mL/min/kg"}
{"compound": "C[C@@H](Nc1nnc(N)c2cc(=O)n(C3CC3)cc12)c1cccc(C(F)F)c1F", "CLint scaled at 1 µM": "< 7.23 mL/min/kg"}
{"compound": "C[C@@H](Nc1nnc(N2CCN(C)CC2)c2cc(=O)n(C3CCC3)cc12)c1cccc(C(F)F)c1F", "CLint scaled at 1 µM": "14.4 mL/min/kg"}
{"compound": "C[C@@H](Nc1nnc(N2CCN(C3CCCC3)CC2)c2cc(=O)n(C3(C)CC3)cc12)c1cccc(C(F)F)c1F", "CLint scaled at 1 µM": "22.2 mL/min/kg"}
{"compound": "CCN1CCN(c2nnc(N[C@H](C)c3cccc(C(F)F)c3F)c3cn(C4(C)CC4)c(=O)cc23)CC1", "CLint scaled at 1 µM": "7.43 mL/min/kg"}
{"compound": "C[C@@H](Nc1nnc(NC2CC2)c2cc(=O)n(C3(C)CC3)cc12)c1cccc(C(F)F)c1F", "CLint scaled at 1 µM": "33.6 mL/min/kg"}
{"compound": "C[C@@H](Nc1nnc(N2CCN(C3CCC3)CC2)c2cc(=O)n(C3(C)CC3)cc12)c1cccc(C(F)F)c1F", "CLint scaled at 1 µM": "19.9 mL/min/kg"}
{"compound": "C[C@@H](Nc1nnc(N2CCN(CC3CC3)CC2)c2cc(=O)n(C3(C)CC3)cc12)c1cccc(C(F)F)c1F", "CLint scaled at 1 µM": "11.7 mL/min/kg"}
{"compound": "C[C@@H](Nc1nnc(NC2(C)CC2)c2cc(=O)n(C3(C)CC3)cc12)c1cccc(C(F)F)c1F", "CLint scaled at 1 µM": "25.8 mL/min/kg"}
{"compound": "CC(C)C1CCN(c2nnc(N[C@H](C)c3cccc(C(F)F)c3F)c3cn(C4(C)CC4)c(=O)cc23)CC1", "CLint scaled at 1 µM": "< 7.23 mL/min/kg"}
{"compound": "Cc1c(C#N)cccc1[C@@H](C)Nc1nnc(C)c2cnc(N3CCOCC3)cc12 [MRTX0902, reference compound]", "CLint scaled at 1 µM": "51.9 mL/min/kg"}
{"compound": "C[C@@H](Nc1nnc(N2CCN(C(C)(C)C)CC2)c2cc(=O)n(C3(C)CC3)cc12)c1cccc(C(F)F)c1F.O=CO [Example 222, formate]", "CLint scaled at 1 µM": "9.47 mL/min/kg"}
{"compound": "CNc1nnc(N[C@H](C)c2cccc(C(F)F)c2F)c2cn(C3CC3)c(=O)cc12", "CLint scaled at 1 µM": "8.8 mL/min/kg"}
{"compound": "CC(C)N1CCN(c2nnc(N[C@H](C)c3cccc(C(F)F)c3F)c3cn(N4CCOCC4)c(=O)cc23)CC1", "CLint scaled at 1 µM": "< 7.23 mL/min/kg"}
